- target-of-assay: T1, human IL-23 (human, UniProt P29460 23-328; Q9NPF7 20-189)
- T1 construct: Recombinant (Ebioscience); HIS-tagged in flow cytometry, biotinylated in some assays; also called hIL-23; rhIL-23
- T1 sequence 1: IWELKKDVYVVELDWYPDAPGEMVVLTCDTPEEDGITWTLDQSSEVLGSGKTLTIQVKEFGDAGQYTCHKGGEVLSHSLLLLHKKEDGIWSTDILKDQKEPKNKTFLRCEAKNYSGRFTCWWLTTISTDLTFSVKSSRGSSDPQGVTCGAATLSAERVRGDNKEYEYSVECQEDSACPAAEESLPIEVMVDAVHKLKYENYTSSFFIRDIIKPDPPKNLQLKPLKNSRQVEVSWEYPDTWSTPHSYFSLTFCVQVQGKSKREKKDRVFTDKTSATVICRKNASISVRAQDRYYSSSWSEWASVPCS
- T1 sequence 2: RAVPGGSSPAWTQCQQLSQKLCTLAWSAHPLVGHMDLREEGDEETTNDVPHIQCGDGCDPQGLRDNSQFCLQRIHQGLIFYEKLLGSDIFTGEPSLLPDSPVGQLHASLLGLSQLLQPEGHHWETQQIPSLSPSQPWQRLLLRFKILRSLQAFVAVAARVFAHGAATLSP
- experiment: SPR screen, crude scFv captured via FLAG
- Method: Approximately 6500 individual scFvs recovered from the ribosome display reactions were expressed and screened for binding against IL-23 using a high-throughout SPR assay. The variants were ranked according to the kd and the best variants were sequenced at the nucleic acid level. High-throughput SPR screening was conducted using a BIAcore A100 biosensor (GE Healthcare). […] The running buffer used was HBS-EP+ (BIAcore) and all interactions measured at 25° C. […]
koff for assorted binders
A number alone suffices; assume s⁻¹.

# query: koff of entry scFv AW-F2 (scFv, scFv-80 variant: VH Y59S; not shown: proprietary C-terminal FLAG tag) scFv: QVQLVQSGAEVKKPGASVKVSCKASGYTFTDYYLHWVRQAPGQGLEWMGWIDPENGDTESAPKFQGRVTMTTDTSTSTAYMELRSLRSDDTAVYYCNANKELRYFDVWGQGTMVTVSSGGGGSGGGGSGGGGSEIVMTQSPATLSVSPGERATLSCRASQSISINLHWYQQKPGQAPRLLIYFASQSISGIPARFSGSGSGTEFTLTISSLQSEDFAVYYCQQSNSFPLTFGGGTKVEIKR
0.00025

# query: koff of entry scFv CL-G7 (scFv, scFv-80 variant: VH E10Q; not shown: proprietary C-terminal FLAG tag) scFv: QVQLVQSGAQVKKPGASVKVSCKASGYTFTDYYLHWVRQAPGQGLEWMGWIDPENGDTEYAPKFQGRVTMTTDTSTSTAYMELRSLRSDDTAVYYCNANKELRYFDVWGQGTMVTVSSGGGGSGGGGSGGGGSEIVMTQSPATLSVSPGERATLSCRASQSISINLHWYQQKPGQAPRLLIYFASQSISGIPARFSGSGSGTEFTLTISSLQSEDFAVYYCQQSNSFPLTFGGGTKVEIKR
0.00012

# query: koff of entry scFv CW-H7 (scFv, scFv-80 variant: VL V13M; not shown: proprietary C-terminal FLAG tag) scFv: QVQLVQSGAEVKKPGASVKVSCKASGYTFTDYYLHWVRQAPGQGLEWMGWIDPENGDTEYAPKFQGRVTMTTDTSTSTAYMELRSLRSDDTAVYYCNANKELRYFDVWGQGTMVTVSSGGGGSGGGGSGGGGSEIVMTQSPATLSMSPGERATLSCRASQSISINLHWYQQKPGQAPRLLIYFASQSISGIPARFSGSGSGTEFTLTISSLQSEDFAVYYCQQSNSFPLTFGGGTKVEIKR
0.000278

# query: koff of entry scFv AZ-D8 (scFv, scFv-80 variant: VH Y27C; not shown: proprietary C-terminal FLAG tag) scFv: QVQLVQSGAEVKKPGASVKVSCKASGCTFTDYYLHWVRQAPGQGLEWMGWIDPENGDTEYAPKFQGRVTMTTDTSTSTAYMELRSLRSDDTAVYYCNANKELRYFDVWGQGTMVTVSSGGGGSGGGGSGGGGSEIVMTQSPATLSVSPGERATLSCRASQSISINLHWYQQKPGQAPRLLIYFASQSISGIPARFSGSGSGTEFTLTISSLQSEDFAVYYCQQSNSFPLTFGGGTKVEIKR
4.3e-05

# query: koff of entry scFv BV-B2 (scFv, scFv-80 variant: VL D82G; not shown: proprietary C-terminal FLAG tag) scFv: QVQLVQSGAEVKKPGASVKVSCKASGYTFTDYYLHWVRQAPGQGLEWMGWIDPENGDTEYAPKFQGRVTMTTDTSTSTAYMELRSLRSDDTAVYYCNANKELRYFDVWGQGTMVTVSSGGGGSGGGGSGGGGSEIVMTQSPATLSVSPGERATLSCRASQSISINLHWYQQKPGQAPRLLIYFASQSISGIPARFSGSGSGTEFTLTISSLQSEGFAVYYCQQSNSFPLTFGGGTKVEIKR
0.00029

The measured values listed here are drawn from patent US20110262445A1.
